Observed GI50 for HCT-15, reported per entry below.
Numbers only, in µM.

[
  {
    "compound": "O=c1[nH]c2cc([N+](=O)[O-])c(N(CCO)CCO)c([N+](=O)[O-])c2[nH]1",
    "GI50 / µM": 31.3
  },
  {
    "compound": "COc1ccc2nc3c([N+](=O)[O-])ccc4c3c(c2c1)N(CCCN(C)C)C(=S)N4CCCN(C)C",
    "GI50 / µM": 3.4
  },
  {
    "compound": "O=C1/C(=C/c2ccc(Cl)cc2)CNC/C1=C\\c1ccc(Cl)cc1",
    "GI50 / µM": 1.16
  },
  {
    "compound": "O=[N+]([O-])c1ccc(NN/N=N/c2ccc(-c3nc4ccccc4s3)cc2)c([N+](=O)[O-])c1",
    "GI50 / µM": 22.7
  },
  {
    "compound": "Cc1cc2c3ccccc3[nH]c2c2ccnc(C)c12",
    "GI50 / µM": 2.34
  },
  {
    "compound": "COc1cc(OC)c(SSCCCCS(=O)O)c(OC)c1",
    "GI50 / µM": 16.6
  }
]

Report GI50 for each item below.
1. COC(=O)[C@H](C)[C@H]1CC[C@@](C)([C@H]2CC3C(C)(C)[C@H]4CCC(C)=C[C@H]4C[C@@]3(C)O2)OO1 (stereo partly specified)
2. CC1=NN(c2nc(N)nc(/C(C#N)=C\c3cccc([N+](=O)[O-])c3)n2)C(C)(C)C1
3. Cc1ccc(S(=O)(=O)c2ccsc2NC(=O)C(F)(F)F)cc1
4. COc1cc2c(cc1OCCCCOc1cc3c(cc1OC)C(=O)N1CCC[C@H]1C(=O)N3)N=C[C@@H]1CCCN1C2=O
5. N#CC1N(C(=O)c2ccc(F)cc2)c2ccccc2N1C(=O)c1ccc(F)cc1

a:
[10.5, 13.2, 34.9, 12.2, 31.3]
